B1: Caulobacter ParB omega fusion; a variant is named by its letters at X, in order, B8GW30 (parent)
chain: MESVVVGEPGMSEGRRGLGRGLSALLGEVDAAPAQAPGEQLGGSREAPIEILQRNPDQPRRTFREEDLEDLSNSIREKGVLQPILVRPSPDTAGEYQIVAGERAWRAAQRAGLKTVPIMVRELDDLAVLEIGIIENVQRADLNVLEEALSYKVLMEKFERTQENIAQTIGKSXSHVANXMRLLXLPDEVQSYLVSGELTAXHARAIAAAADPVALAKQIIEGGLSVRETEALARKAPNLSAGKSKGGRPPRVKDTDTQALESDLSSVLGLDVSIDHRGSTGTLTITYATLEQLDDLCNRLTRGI

- Variants of: B1
- assay remarks: one-hybrid fitness for binding parS DNA (scaled: cognate 1, non-cognate 0); higher = stronger binding
- measurement context: with parS DNA site
Whole data set: some 81,000 sequences, median “one-hybrid fitness for binding parS DNA” near -0.17, cut for the highest 2% near 0.51. This is one part of a sample in which the highest values are shown more often than they occur.
attribute measured: one-hybrid fitness for binding parS DNA

- sequence variant: "RYWA"
  one-hybrid fitness for binding parS DNA: 0.554

IN: Which one-hybrid fitness for binding parS DNA reading was recorded for the variant RGWY ?
OUT: ≤ 0.2

IN: Which one-hybrid fitness for binding parS DNA reading was recorded for the variant RQMY ?
OUT: 0.474

IN: Which one-hybrid fitness for binding parS DNA reading was recorded for the variant RIYN ?
OUT: 0.476

IN: Which one-hybrid fitness for binding parS DNA reading was recorded for the variant EYSA ?
OUT: ≤ 0.2

IN: Which one-hybrid fitness for binding parS DNA reading was recorded for the variant PVER ?
OUT: ≤ 0.2

IN: Which one-hybrid fitness for binding parS DNA reading was recorded for the variant EFNL ?
OUT: ≤ 0.2

IN: Which one-hybrid fitness for binding parS DNA reading was recorded for the variant SKAI ?
OUT: ≤ 0.2

IN: Which one-hybrid fitness for binding parS DNA reading was recorded for the variant GELY ?
OUT: ≤ 0.2

IN: Which one-hybrid fitness for binding parS DNA reading was recorded for the variant LKVQ ?
OUT: ≤ 0.2

IN: Which one-hybrid fitness for binding parS DNA reading was recorded for the variant NTDV ?
OUT: ≤ 0.2

IN: Which one-hybrid fitness for binding parS DNA reading was recorded for the variant YEHG ?
OUT: ≤ 0.2

IN: Which one-hybrid fitness for binding parS DNA reading was recorded for the variant RFTT ?
OUT: 0.836

IN: Which one-hybrid fitness for binding parS DNA reading was recorded for the variant RNSG ?
OUT: 0.921

IN: Which one-hybrid fitness for binding parS DNA reading was recorded for the variant RKTY ?
OUT: 0.353

IN: Which one-hybrid fitness for binding parS DNA reading was recorded for the variant QRLD ?
OUT: ≤ 0.2

IN: Which one-hybrid fitness for binding parS DNA reading was recorded for the variant CYAS ?
OUT: ≤ 0.2

IN: Which one-hybrid fitness for binding parS DNA reading was recorded for the variant FQLR ?
OUT: ≤ 0.2

IN: Which one-hybrid fitness for binding parS DNA reading was recorded for the variant DYKA ?
OUT: ≤ 0.2
